Just for reference, patent US20050244490A1 is where these values come from.

PROTOCOL DESCRIPTION: Food effect, fed versus fasted crossover (Cohort 4)
CONDITION NOTES: human, plasma, oral, 100 mg, CLtot/F, 100 MG FED, coated tablet after high fat meal, PART B
PARAMETER: CL/F
Please state the number and follow it with the unit.

Data request: Read off the recorded CL/F for Nc1nc(=O)n(C2C=CC(CO)O2)cc1F [β-D-D4FC]
Data returned: 3380 mL/min

----------
PROTOCOL DESCRIPTION: clinical
CONDITION NOTES: in vivo
PARAMETER: Cmax (µM)
Return type: number; implicit unit µM.

Data request: Read off the recorded Cmax for Nc1ccn([C@@H]2CS[C@H](CO)O2)c(=O)n1
Data returned: 6.6

Data request: Read off the recorded Cmax for O=c1[nH]cnc2c1ncn2[C@H]1CC[C@@H](CO)O1
Data returned: 4.2

Data request: Read off the recorded Cmax for Cc1cn([C@H]2C=C[C@@H](CO)O2)c(=O)[nH]c1=O [D4T, 2′,3′-didehydro-2′,3′-dideoxythymidine]
Data returned: 2.7

----------
PROTOCOL DESCRIPTION: clinical
CONDITION NOTES: male, human, in vivo, 100 mg, CLr
PARAMETER: CL renal (mL/min)
Return type: number; implicit unit mL/min.

Data request: Read off the recorded CL renal for Nc1nc(=O)n(C2C=CC(CO)O2)cc1F (stereo not shown)
Data returned: 124

----------
PROTOCOL DESCRIPTION: clinical
CONDITION NOTES: male, human, in vivo, 50 mg, mean Cmax
PARAMETER: Cmax (nM)
Return type: number; implicit unit nM.

Data request: Read off the recorded Cmax for Nc1nc(=O)n(C2C=CC(CO)O2)cc1F (stereo not shown)
Data returned: 2500

----------
Test system: HepG2 cells
PROTOCOL DESCRIPTION: Mitochondrial toxicity testing (mitDNA, rRNA, lactic acid)
Format: cell-based
CONDITION NOTES: 10 μM, 14 days, normalized for cytotoxicity
PARAMETER: % Change in Lactic Acid

Data request: Read off the recorded % Change in Lactic Acid for Nc1nc(=O)n(C2C=CC(CO)O2)cc1F [β-D-D4FC]
Data returned: −2%

Data request: Read off the recorded % Change in Lactic Acid for Nc1nc(=O)n([C@H]2C=C[C@@H](CO)O2)cc1F [L-D4FC]
Data returned: +147%

Data request: Read off the recorded % Change in Lactic Acid for Nc1ccn([C@H]2CC[C@@H](CO)O2)c(=O)n1 [ddC, 2′,3′-dideoxycytidine]
Data returned: +492%

Data request: Read off the recorded % Change in Lactic Acid for Nc1ccn([C@@H]2CS[C@H](CO)O2)c(=O)n1 [3TC, β-L-2′,3′-dideoxy-3′-thiacytidine]
Data returned: +5%
